# TEST TARGET: HCK (human) (UniProt P08631)
# Sequence (P08631 whole entry, looked up): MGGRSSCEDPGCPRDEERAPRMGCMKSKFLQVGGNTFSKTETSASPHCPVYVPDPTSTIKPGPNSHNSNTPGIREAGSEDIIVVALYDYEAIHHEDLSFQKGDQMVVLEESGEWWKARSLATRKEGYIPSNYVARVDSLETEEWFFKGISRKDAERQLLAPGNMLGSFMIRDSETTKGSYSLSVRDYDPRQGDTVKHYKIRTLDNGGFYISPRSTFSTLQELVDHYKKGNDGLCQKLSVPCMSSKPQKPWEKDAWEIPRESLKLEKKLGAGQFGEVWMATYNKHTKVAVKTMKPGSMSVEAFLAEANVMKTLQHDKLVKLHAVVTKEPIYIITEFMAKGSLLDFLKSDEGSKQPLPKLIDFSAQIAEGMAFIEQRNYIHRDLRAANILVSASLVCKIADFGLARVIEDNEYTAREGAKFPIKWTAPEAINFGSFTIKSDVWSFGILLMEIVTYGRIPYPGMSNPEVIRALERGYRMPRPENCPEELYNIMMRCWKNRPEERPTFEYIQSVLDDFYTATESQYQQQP
# ASSAY NAME: radiometric filter-binding kinase assay, Kinase HotSpot
# CONDITION CONTEXT: compound 0.5 µM; ATP 10 µM
Each entry below lists one item and its recorded residual activity value.
// return numeric value only (unit: %, not printed)

> print(dat)
                                   compound  endpoint.value
1  CO[C@@H]1[C@H](N(C)C(=O)c2ccccc2)C[C@H]2O[C@]1(C)n1c3ccccc3c3c4c(c5c6ccccc6n2c5c31)C(=O)NC4            14.9
2       Fc1ccc(-c2nc3n(c2-c2ccncc2)CCS3)cc1             101
3           Ic1cccc(CSc2nnc(-c3ccncc3)o2)c1             104

Below: the item to evaluate.
Item: Cc1cccc(-c2nc(C(C)(C)C)[nH]c2-c2ccc3c(c2)OCO3)n1 | residual activity: 90.7
